Answer each item with its documented EC50.
# assay-procedure: RSV-A Assay: The description is Japanese.

Q: Looking for the measured EC50 of O=C1Nc2ccccc2C(c2ccccc2)=NC1Nc1nnco1 (configuration not stated) , can you help?
A: > 800 nM

Q: I would be grateful if you could share the reported EC50 for CC(C)(Cc1ccccc1)c1nnc(NC2N=C(c3ccccc3)c3ccccc3NC2=O)o1 (configuration not stated) .
A: > 800 nM

Q: # EC50 lookup, item `COCCn1cc(-c2nnc(N[C@H]3N=C(c4ccccc4)c4ccccc4NC3=O)o2)c(N2CCOCC2)n1`
A: < 400 nM

Q: Quick one: EC50 for O=C1Nc2ccccc2C(c2ccccc2)=NC1Nc1nnc([C@H]2CCCO2)o1 (some centres not stated) ?
A: > 800 nM

====

# assay-procedure: RSV-A Assay: The description is Japanese.
measure-name: EC50

Q: Which measured EC50 value corresponds to O=C1Nc2ccccc2C(c2ccccc2)=NC1Nc1nnc(-c2cccnc2N2CCCCC2)o1 (stereo unspecified) ?
A: > 0.8 µM

Q: Tell me the measured EC50 of `N#Cc1ccc(N2CCOCC2)c(-c2nnc(N[C@H]3N=C(c4ccccc4)c4ccccc4NC3=O)o2)n1` , please.
A: < 0.4 µM

Q: GET /values?readout=EC50&item= N#Cc1cccc(-c2nnc(NC3N=C(c4ccccc4)c4ccccc4NC3=O)o2)c1 (stereo unspecified)
A: > 0.8 µM

Q: Given O=C1Nc2ccccc2C(c2ccccc2)=NC1Nc1nnc(-c2ccc(N3CCOCC3)cc2)o1 (stereo unspecified) , state its recorded EC50.
A: < 0.4 µM

Q: Given O=C1Nc2ccccc2C(c2ccccc2)=NC1Nc1nnc(-c2ccccc2F)o1 (stereo unspecified) , state its recorded EC50.
A: > 0.8 µM

Q: Entry `Cc1ccc(C(=O)O)c(N2CCOCC2)n1` has what EC50?
A: < 0.4 µM

Q: Field request: EC50 | item: `COC(=O)c1cc(Br)c(C2CC2)nc1Cl`
A: < 0.4 µM

Q: For N#Cc1ccc(-c2nnc(NC3N=C(c4ccccc4)c4ccccc4NC3=O)o2)s1 (stereo unspecified) , what is its reported EC50?
A: < 0.4 µM

Q: Look up EC50: O=C1Nc2ccccc2C(c2ccccc2)=NC1Nc1nnc([C@@H]2COCCN2)o1 (stereo partly specified)
A: > 0.8 µM
